The reader will find reported Inhibition values listed item by item below.
tested on: Plasmodium falciparum; experiment: GSK_TCMDC: Inhibition of Plasmodium falciparum Dd2 in whole red blood cells, using parasite LDH activity as an index of growth. Test compounds present at 2uM; assay type: functional
measured-parameter: Inhibition (%)

[[record]]
structure_smiles = "COc1cccc(C2CCN(CCN3CCC(NC(=O)c4ccc(-c5ccc(Cl)cc5)cc4)CC3)CC2)c1"
measured_parameter = "Inhibition"
display_unit = "%"
number = 42

[[record]]
structure_smiles = "CCCNCc1ccc(-c2ccc(CNC3Cc4ccccc4C3)cc2)nc1.O=C(O)C(F)(F)F"
measured_parameter = "Inhibition"
display_unit = "%"
number = 32

[[record]]
structure_smiles = "Cc1cc(N[C@@H](CC(C)C)C(=O)NCCc2ccccc2)nc(NCc2ccccc2C)n1.O=C(O)C(F)(F)F"
measured_parameter = "Inhibition"
display_unit = "%"
number = 74

[[record]]
structure_smiles = "COc1cc(C(=O)NCCCN2CCN(c3cccc(Cl)c3)CC2)ccc1-c1cc2cc(Cl)c(Cl)cc2[nH]1"
measured_parameter = "Inhibition"
display_unit = "%"
number = 86


====

tested on: Plasmodium falciparum; assay: GSK_TCMDC: Inhibition of Plasmodium falciparum 3D7 in whole red blood cells, using parasite LDH activity as an index of growth. Test compounds present at 2uM; format: functional
The reader will find reported Inhibition values listed item by item below.
measured-parameter: Inhibition (%)

[[record]]
compound = "Cc1ccc(NC(=S)NC2CCN(CCCCCNC(=O)/C=C/c3ccc(Cl)c(Cl)c3)CC2)cc1Cl"
number = 100

[[record]]
compound = "Cl.c1ccc2nc(NCCCCCCCCNc3ccc4ccccc4n3)ccc2c1"
number = 100

[[record]]
compound = "CCCc1cc(=O)[nH]c(-n2nc(C)cc2NC(=O)C(CC)c2ccccc2)n1 (stereo not drawn)"
number = 94

[[record]]
compound = "Clc1cc(Nc2ncnc3cc(C#C[C@H]4CCCN4)sc23)cc2nc(Cc3ccccc3)[nH]c12.O=C(O)C(F)(F)F"
number = 91

[[record]]
compound = "C[C@@H](Nc1nc(NCc2ccccc2)c2sccc2n1)c1ccccc1"
number = 91

[[record]]
compound = "O=C(Cn1c(CCc2cccc(F)c2F)nc(=O)c2cccnc21)N(Cc1ccc(-c2ccc(C(F)(F)F)cc2)cc1)C1CCN(C2CCSCC2)CC1.O=C(O)C(O)C(O)C(=O)O"
number = 100

[[record]]
compound = "O=C(NCc1ccccc1)NC(CCCN1CCC(Oc2cccc(Cl)c2)CC1)c1ccc(Cl)c(Cl)c1 (stereo not drawn)"
number = 81

[[record]]
compound = "CC(O)CNc1nc2ccccc2n1CC(=O)Nc1cccc(C(=O)Nc2cccc(C(F)(F)F)c2)c1 (stereo not drawn)"
number = 99


====

test system: Plasmodium falciparum; test: GSK_TCMDC: Inhibition of Plasmodium falciparum 3D7 in whole red blood cells, using parasite LDH activity as an index of growth. Test compounds present at 2uM; format: functional
measured-parameter: Inhibition (%)

[[record]]
compound = "COCC(=O)Nc1nc2ccccc2[nH]1"
target_entity = "Plasmodium falciparum"
measured_parameter = "Inhibition"
display_unit = "%"
number = 98

[[record]]
compound = "CN1CCN(c2ccnc3ccc(NC(=O)Cc4ccc5ccccc5c4)cc23)CC1"
target_entity = "Plasmodium falciparum"
measured_parameter = "Inhibition"
display_unit = "%"
number = 100

[[record]]
compound = "CCN(c1ccc(F)cc1)S(=O)(=O)c1cc(Br)cc2c1N(C(=O)C1CC1)CC2"
target_entity = "Plasmodium falciparum"
measured_parameter = "Inhibition"
display_unit = "%"
number = 88

[[record]]
compound = "Cc1ccc2c(Cl)c(C(=O)N3CC(C)OC(C)C3)sc2c1 (centres undefined)"
target_entity = "Plasmodium falciparum"
measured_parameter = "Inhibition"
display_unit = "%"
number = 100

[[record]]
compound = "CC(C)C[C@H](NC(=O)[C@H](Cc1ccccc1)NC(=O)CCN1C(=O)COc2ccc(C(=O)O)cc21)C(=O)NC(CC1CCCCC1)C(O)CC(=O)NCCCn1ccnc1.Cl.O (some centres undefined)"
target_entity = "Plasmodium falciparum"
measured_parameter = "Inhibition"
display_unit = "%"
number = 99

[[record]]
compound = "Cc1cccc(OCC2CCN(c3ncc(C(=O)NC4CC4)cc3Cl)CC2)c1"
target_entity = "Plasmodium falciparum"
measured_parameter = "Inhibition"
display_unit = "%"
number = 90

[[record]]
compound = "CCc1cc(N2CCN(c3ccccc3F)CC2)nc(SCc2ccc(C(=O)NC3CC3)o2)n1"
target_entity = "Plasmodium falciparum"
measured_parameter = "Inhibition"
display_unit = "%"
number = 90

[[record]]
compound = "CCN(CC)CC(O)CNc1c2ccc([N+](=O)[O-])cc2nc2cc(OC)c(OC)cc12.Cl (centres undefined)"
target_entity = "Plasmodium falciparum"
measured_parameter = "Inhibition"
display_unit = "%"
number = 100

[[record]]
compound = "Clc1cc(Nc2ncnc3sc(C#C[C@H]4CCCN4)cc23)ccc1OCc1cccnc1Cl.O=C(O)C(F)(F)F"
target_entity = "Plasmodium falciparum"
measured_parameter = "Inhibition"
display_unit = "%"
number = 100

[[record]]
compound = "Clc1ccc(-c2csc3ncnc(Cl)c23)cc1"
target_entity = "Plasmodium falciparum"
measured_parameter = "Inhibition"
display_unit = "%"
number = 94

[[record]]
compound = "Nc1cc(/C=C/c2ccc([N+](=O)[O-])o2)nc2ccccc12"
target_entity = "Plasmodium falciparum"
measured_parameter = "Inhibition"
display_unit = "%"
number = 93

[[record]]
compound = "CNC(=O)c1cnc(Nc2ccc(N3CCN(C)CC3)cc2)nc1Nc1cccc(OC(C)C)c1.O=C(O)C(F)(F)F"
target_entity = "Plasmodium falciparum"
measured_parameter = "Inhibition"
display_unit = "%"
number = 100

[[record]]
compound = "O=C(/C=C/c1ccc(Cl)c(Cl)c1)N1CCC(CCCN2CCC(c3c[nH]c4ccc(O)cc34)CC2)CC1"
target_entity = "Plasmodium falciparum"
measured_parameter = "Inhibition"
display_unit = "%"
number = 100

[[record]]
compound = "Br.CCCCCCCCn1c2c(c(=N)c3c1CCC3)CCCC2"
target_entity = "Plasmodium falciparum"
measured_parameter = "Inhibition"
display_unit = "%"
number = 100

[[record]]
compound = "CN1CCN(c2ccc(-c3cc(-c4cc(F)c(F)c(F)c4)cnc3N)cc2)CC1"
target_entity = "Plasmodium falciparum"
measured_parameter = "Inhibition"
display_unit = "%"
number = 88

[[record]]
compound = "Cc1cccc2nc(-c3ccc(-c4ccc(NC(=O)Nc5cccc(C#N)c5)cc4)cc3)[nH]c12"
target_entity = "Plasmodium falciparum"
measured_parameter = "Inhibition"
display_unit = "%"
number = 100

[[record]]
compound = "CCSc1ccc(C)cc1CON1C(N)=NC(N)=NC1(C)C.Cl"
target_entity = "Plasmodium falciparum"
measured_parameter = "Inhibition"
display_unit = "%"
number = 94

[[record]]
compound = "CN(Cc1cccc(F)c1)C1CCCN(c2cc(NC(=O)c3ccccc3)ccn2)C1.O=C(O)C(F)(F)F (centres undefined)"
target_entity = "Plasmodium falciparum"
measured_parameter = "Inhibition"
display_unit = "%"
number = 93

[[record]]
compound = "Cc1cccc2nc(-c3ccc(-c4cccc(CN5CCN(CCN6CCOCC6)CC5)c4)s3)[nH]c12.O=C(O)C(F)(F)F"
target_entity = "Plasmodium falciparum"
measured_parameter = "Inhibition"
display_unit = "%"
number = 100


====

test system: HepG2; assay: GSK_TCMDC: Percent inhibition of human HepG2 cell line. Test compounds present at 10uM.; format: functional
measured-parameter: Inhibition

[[record]]
compound = "O=C(Nc1cccc(C(F)(F)F)c1)c1ccc(S(=O)(=O)NCC2CCN(CC3CCCCC3)CC2)cc1.O=C(O)C(F)(F)F"
target_entity = "HepG2"
result = "24%"

[[record]]
compound = "Cc1ccccc1C1CCN(C2CCC(NC(=O)/C=C/c3cccc(F)c3)CC2)CC1 (centres undefined)"
target_entity = "HepG2"
result = "46%"

[[record]]
compound = "CCOc1cc(C2C(C(=O)OC(C)C)=C(C)NC3=C2C(=O)CC(c2ccc(Cl)cc2)C3)ccc1OC(C)=O (centres undefined)"
target_entity = "HepG2"
result = "16%"

[[record]]
compound = "CN1CCN(CCNc2c3ccccc3nc3ccc4ccccc4c23)CC1.Cl"
target_entity = "HepG2"
result = "22%"

[[record]]
compound = "O=C(/C=C/c1ccc(Cl)c(Cl)c1)NCCCCCN1CCC(NC(=O)Nc2ccc(C(F)(F)F)cc2)C1 (centres undefined)"
target_entity = "HepG2"
result = "11%"

[[record]]
compound = "O=C(NCCCCN1CCN(c2ccc3c(c2)CCC3)CC1)c1ccc(NC(=O)c2ccc(Cl)cc2)cc1"
target_entity = "HepG2"
result = "38%"

[[record]]
compound = "CCNc1cc(C(=O)N[C@@H](Cc2ccccc2)[C@H](O)CNC2(Cc3cccc(Cl)c3)CCC2)cc(N2CCCCS2(=O)=O)c1.Cl"
target_entity = "HepG2"
result = "22%"

[[record]]
compound = "CC(=O)c1sc(NC(=O)Nc2ccc(C)cc2C)nc1C"
target_entity = "HepG2"
result = "5%"

[[record]]
compound = "Cc1c(Cc2ccccc2)c(=O)oc2c(C)c3c(cc12)CN(CC(C)c1ccccc1)CO3 (centres undefined)"
target_entity = "HepG2"
result = "1%"

